Stability Long-Term RE (%) values, listed per item
Experiment: Stability of the analytes in spiked plasma, brain, kidney and spleen matrices (autosampler, long-term, freeze-thaw)
Format: physicochemical, mice
Settings: kidney, nominal 30.0 µg/mL, −70 °C for 30 days
Kindly answer with a numeric value in %, unit omitted.

{"structure_notation": "COc1cc2ccc(=O)oc2cc1OCC=C(C)C", "Stability Long-Term RE (%)": 7.34}
{"structure_notation": "COc1cc2ccc(=O)oc2cc1OC", "Stability Long-Term RE (%)": 4.36}

// query Look up Stability Long-Term RE (%) for this compound: "COc1ccc2ccc(=O)oc2c1"
// result 3.32

// query GET /values?readout=Stability Long-Term RE (%)&item= "CC(C)=CCOc1ccc2ccc(=O)oc2c1"
// result 6.46

// query So what's the measured Stability Long-Term RE (%) for this one? "COc1cc2ccc(=O)oc2c(OC)c1OC"
// result 5.67
